Test system: Rattus norvegicus
Method notes: Acute antiinflammatory activity in po dosed rat assessed as inhibition of carrageenan-induced paw edema
Assay type: functional
Result type: ED50 (mg/kg)
One number for each entry, in mg/kg.

Below, each entry is followed by its recorded ED50 result.
INSERT INTO results (compound, result_type, units_of_measure, experimental_value) VALUES
  ('CCc1cccc2c3c([nH]c12)C(CC)(CC(=O)O)OCC3 (stereo not given)', 'ED50', 'mg/kg', 10.2),
  ('O=C(O)C1CCc2c([nH]c3ccc(Cl)cc23)C1 (stereo not given)', 'ED50', 'mg/kg', 10.2),
  ('COc1ccc2[nH]c3c(c2c1)CCC(C(=O)O)C3 (stereo not given)', 'ED50', 'mg/kg', 12.7),
  ('CCCC1(CC(=O)O)OCCc2c1[nH]c1ccccc21 (stereo not given)', 'ED50', 'mg/kg', 89.9);

For CCCc1cccc2c3c([nH]c12)C(CC)(CC(=O)O)CCC3 (stereo not given) , write its ED50.
10.5

---

Test system: Rattus norvegicus
Method notes: Ulcerogenicity in po dosed 24-hrs starved Charles-River rat assessed as lesions on stomach administered as single dose measured after 18 hrs
Type: toxicity, organism-based
Condition summary: in vivo
Result type: ED50 (mg/kg)
Answers are plain numbers, in mg/kg.

Example results:
INSERT INTO measurements (molecule, experimental_value) VALUES
  ('CCCc1cccc2c3c([nH]c12)C(CC)(CC(=O)O)CCC3 (stereo not given)', 24),
  ('COc1ccc2cc([C@H](C)C(=O)O)ccc2c1', 28);

Quick request: ED50 for each listed item, please.
1. CCCCC1C(=O)N(c2ccccc2)N(c2ccccc2)C1=O
2. CCc1cccc2c3c([nH]c12)C(CC)(CC(=O)O)OCC3 (stereo not given)
3. CCCC1(CC(=O)O)OCCc2c1[nH]c1ccccc21 (stereo not given)

100
60
678

---

Could you please report measured Ratio ED50 for the items listed next?
Organism: Rattus norvegicus
Method notes: Ratio of ED50 for ulcerogenicity in 24-hrs starved Charles-River rat to ED50 for chronic antiinflammatory activity against adjuvant-induced arthritis in rat

INSERT INTO measurements (molecule, result_type, experimental_value) VALUES
  ('CCc1cccc2c3c([nH]c12)C(CC)(CC(=O)O)OCC3 (centres undefined)', 'Ratio ED50', 85),
  ('CCCc1cccc2c3c([nH]c12)C(CC)(CC(=O)O)CCC3 (centres undefined)', 'Ratio ED50', 24),
  ('COc1ccc2cc([C@H](C)C(=O)O)ccc2c1', 'Ratio ED50', 13);

Return value of Ratio ED50 for input CCCC1(CC(=O)O)OCCc2c1[nH]c1ccccc21 (centres undefined) , no commentary.
75
